Overview of recorded normalized growth for various compounds
Assay: chemical genetic growth profiling, strain panel (AID 1159580);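 also: tested at 20 µM; growth read once vehicle control cultures reached saturation at 30 °C; 1 = growth at the plate median or of vehicle wells; lower values mean less growth of the strain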
Details: S. cerevisiae deletion strains, growth OD, locus YJL095W, strain BCK1, active compounds read low
The whole screen tested about 5,500 compounds, of which about 2,000 (36%) were called active. Roughly 18% stayed inconclusive and do not appear here. The list shows a part of the results.
# respond with the number and nothing more

Here are 3 compounds together with their reported answers.
Cc1cc(Cl)ccc1NNC(=O)c1sccc1Br    0.714
CC1(C)C=CC(=O)[C@@]2(C)C1CC(=O)[C@]1(C)C2CC[C@@]2(C)[C@H](c3ccoc3)OC(=O)C3OC321 (some centres undefined)    0.981
Cc1cc(Oc2ccc(C(F)(F)F)cc2NS(C)(=O)=O)cc(C)c1Cl    0.891

**Query** Tell me measured normalized growth for O=c1ccc2cc(OC3OC(CO)C(O)C(O)C3O)c(O)cc2o1 (centres undefined) please.
**Result** 0.968

**Query** Tell me measured normalized growth for CCN[C@@H]1C[C@H](N)[C@@H](O[C@H]2OC(CN)=CC[C@H]2N)[C@H](O)[C@H]1OC1OC[C@](C)(O)[C@H](NC)[C@H]1O (some centres undefined) please.
**Result** 0.972
